Entry source: ChEMBL document CHEMBL2086299

# protocol-text: Induction of proliferation of neonatal skin fibroblasts assessed as protein content per well at 50 uM after 48 hrs by […] relative to control
# Format: functional, Homo sapiens, Skin fibroblast
The compounds listed here are annotated with their Activity.
quantity-kind: Activity (%)

>>> numeric_result("C/C=C(/C)C(=O)O[C@H]1CC(C)(C)C[C@H]2C3=CC[C@@H]4[C@@]5(C)CC[C@H](O[C@@H]6O[C@H](C(=O)O)[C@@H](O)[C@H](O[C@@H]7O[C@H](CO)[C@H](O)[C@H](O)[C@H]7O[C@@H]7O[C@@H](C)[C@H](O)[C@@H](O)[C@H]7O)[C@H]6O[C@@H]6O[C@H](CO)[C@@H](O)[C@H](O)[C@H]6O)C(C)(C)[C@@H]5CC[C@@]4(C)[C@]3(C)[C@@H](O)[C@@H](O)[C@@]12CO")
48.8
>>> numeric_result("C/C=C(\\C)C(=O)O[C@H]1[C@H](OC(=O)/C(C)=C/C)[C@]2(CO)[C@H](O)[C@H](O)[C@]3(C)C(=CC[C@@H]4[C@@]5(C)CC[C@H](O[C@@H]6O[C@H](C(=O)O)[C@@H](O)[C@H](O[C@@H]7O[C@H](CO)[C@H](O)[C@H](O)[C@H]7O[C@@H]7O[C@@H](C)[C@H](O)[C@@H](O)[C@H]7O)[C@H]6O[C@@H]6O[C@H](CO)[C@@H](O)[C@H](O)[C@H]6O)C(C)(C)[C@@H]5CC[C@]43C)[C@@H]2CC1(C)C")
49.4
>>> numeric_result("C/C=C(\\C)C(=O)O[C@H]1CC(C)(C)C[C@H]2C3=CC[C@@H]4[C@@]5(C)CC[C@H](O[C@@H]6O[C@H](C(=O)O)[C@@H](O)[C@H](O[C@@H]7O[C@H](CO)[C@H](O)[C@H](O)[C@H]7O[C@@H]7O[C@@H](C)[C@H](O)[C@@H](O)[C@H]7O)[C@H]6O[C@@H]6O[C@H](CO)[C@@H](O)[C@H](O)[C@H]6O)C(C)(C)[C@@H]5CC[C@@]4(C)[C@]3(C)[C@@H](O)[C@@H](O)[C@@]12CO")
48.9

---

# protocol-text: Induction of proliferation of neonatal skin fibroblasts assessed as WST-8 formazan accumulation per well at 20 uM after 48 hrs by WST-8 assay relative to control
# Format: functional, Homo sapiens, Skin fibroblast
The compounds listed here are annotated with their Activity.
quantity-kind: Activity (%)

>>> numeric_result("CC1(C)CC[C@]2(O)C(=O)C[C@]3(C)C(=CC[C@@H]4[C@@]5(C)CC[C@H](O[C@@H]6O[C@H](C(=O)O)[C@@H](O)[C@H](O[C@@H]7O[C@H](CO)[C@H](O)[C@H](O)[C@H]7O[C@@H]7O[C@H](CO)[C@@H](O)[C@H](O)[C@H]7O)[C@H]6O[C@H]6O[C@@H](CO)[C@@H](O)[C@@H](O)[C@@H]6O)C(C)(C)C5CC[C@]43C)[C@@H]2C1 (stereo partly specified) [CAMELLIOSIDE A]")
113.6
>>> numeric_result("CC(=O)O[C@@H]1[C@H](O)[C@@H](O)[C@H](O[C@H]2[C@H](O[C@H]3CC[C@]4(C)[C@H]5CC=C6[C@@H]7CC(C)(C)CC[C@]7(O)C(=O)C[C@@]6(C)[C@]5(C)CC[C@H]4C3(C)C)O[C@H](C(=O)O)[C@@H](O)[C@@H]2O[C@@H]2O[C@H](CO)[C@H](O)[C@H](O)[C@H]2O[C@@H]2O[C@H](CO)[C@@H](O)[C@H](O)[C@H]2O)O[C@@H]1CO [CAMELLIOSIDE B]")
132.1
>>> numeric_result("CC1(C)CC[C@]2(C=O)[C@H](O)C[C@]3(C)C(=CC[C@@H]4[C@@]5(C)CC[C@H](O[C@@H]6O[C@H](C(=O)O)[C@@H](O)[C@H](O[C@@H]7O[C@H](CO)[C@H](O)[C@H](O)[C@H]7O[C@@H]7O[C@H](CO)[C@@H](O)[C@H](O)[C@H]7O)[C@H]6O[C@@H]6O[C@H](CO)[C@H](O)[C@H](O)[C@H]6O)C(C)(C)[C@@H]5CC[C@]43C)[C@@H]2C1 (relative stereo)")
102.2
>>> numeric_result("CC1(C)CC[C@]2(CO)[C@H](O)C[C@]3(C)C(=CC[C@@H]4[C@@]5(C)CC[C@H](O[C@@H]6O[C@H](C(=O)O)[C@@H](O)[C@H](O[C@@H]7O[C@H](CO)[C@H](O)[C@H](O)[C@H]7O[C@@H]7O[C@H](CO)[C@@H](O)[C@H](O)[C@H]7O)[C@H]6O[C@@H]6O[C@H](CO)[C@H](O)[C@H](O)[C@H]6O)C(C)(C)[C@@H]5CC[C@]43C)[C@@H]2C1 [CAMELLIOSIDE D]")
108.6
>>> numeric_result("O.O=C1O[C@H]([C@@H](O)CO)C(O)=C1OP(=O)([O-])[O-].[Mg+2]")
122.8
>>> numeric_result("CC1(C)CC[C@]2(O)[C@H](O)C[C@]3(C)C(=CC[C@@H]4[C@@]5(C)CC[C@H](O[C@@H]6O[C@H](C(=O)O)[C@@H](O)[C@H](O[C@@H]7O[C@H](CO)[C@H](O)[C@H](O)[C@H]7O[C@@H]7O[C@H](CO)[C@@H](O)[C@H](O)[C@H]7O)[C@H]6O[C@@H]6O[C@H](CO)[C@H](O)[C@H](O)[C@H]6O)C(C)(C)[C@@H]5CC[C@]43C)[C@@H]2C1 (relative stereo)")
116.2
